Please respond with reported pIC50 for every item in the list.
# Test system: HepG2
# protocol-description: Cytotoxicity against human HepG2 cells assessed as reduction in cell viability after 48 hrs by MTT assay
# Assay type: functional, cell-based
# details: HepG2, 48 h
Numbers only, as −log10 of the molar value.

# batch size: 5; output pIC50 per entry
1. COC(=O)[C@]1(C)CCC[C@]2(C)c3cc(Br)c4nc(/N=C/c5ccccc5O)[nH]c4c3CC[C@@H]12
2. CCN(CC)c1ccc(/C=N/c2nc3c(Br)cc4c(c3[nH]2)CC[C@H]2[C@](C)(C(=O)OC)CCC[C@]42C)c(O)c1
3. COC(=O)[C@]1(C)CCC[C@]2(C)c3cc(Br)c4nc(NCc5cc(C)ccc5O)[nH]c4c3CC[C@@H]12
4. COC(=O)[C@]1(C)CCC[C@]2(C)c3cc(Br)c4nc(NCc5ccc6ccccc6c5O)[nH]c4c3CC[C@@H]12
5. COC(=O)[C@]1(C)CCC[C@]2(C)c3cc(Br)c4nc(NCc5cc(Cl)cc(Cl)c5O)[nH]c4c3CC[C@@H]12

## Result
1: 6.68; 2: 6.80; 3: 5.21; 4: 4.67; 5: 5.62

###

Please respond with reported pIC50 for every item in the list.
# Test system: HepG2
# protocol-description: Cytotoxicity against human HepG2 cells assessed as reduction in cell viability after 48 hrs by MTT assay
# Type: functional, cell-based
# details: HepG2, 48 h
One number for each entry, as −log10 of the molar value.

Reference set, count: 3
smiles-text | result-value
CCN(CC)c1ccc(CNc2nc3c(Br)cc4c(c3[nH]2)CC[C@H]2[C@](C)(C(=O)OC)CCC[C@]42C)c(O)c1 | 5.47
COC(=O)[C@]1(C)CCC[C@]2(C)c3cc(Br)c4nc(/N=C/c5cc(Cl)cc(Cl)c5O)[nH]c4c3CC[C@@H]12 | 6.16
COC(=O)[C@]1(C)CCC[C@]2(C)c3cc(Br)c4nc(/N=C/c5cc(F)ccc5O)[nH]c4c3CC[C@@H]12 | 6.21

Consider the record given below.
## Task What value of measured pIC50 is listed for COC(=O)[C@]1(C)CCC[C@]2(C)c3cc(Br)c4nc(/N=C/c5cc([N+](=O)[O-])ccc5O)[nH]c4c3CC[C@@H]12 ?
## Result 5.62

###

Please respond with reported pIC50 for every item in the list.
# Tested on: HepG2
# protocol-description: Cytotoxicity against human HepG2 cells assessed as reduction in cell viability after 48 hrs by MTT assay
# Format: functional, cell-based
# details: HepG2, 48 h
One number for each entry, as −log10 of the molar value.

smiles-text | result-value
COC(=O)[C@]1(C)CCC[C@]2(C)c3cc(Br)c4nc(NCc5cc(Br)ccc5O)[nH]c4c3CC[C@@H]12 | 5.38
COC(=O)[C@]1(C)CCC[C@]2(C)c3cc(Br)c([N+](=O)[O-])c([N+](=O)[O-])c3CC[C@@H]12 | 4.47

Consider the record given below.
## Task What value of measured pIC50 is listed for COC(=O)[C@]1(C)CCC[C@]2(C)c3cc(Br)c4nc(N)[nH]c4c3CC[C@@H]12 ?
## Result 4.82

###

# System: HepG2
# protocol-description: Cytotoxicity against human HepG2 cells assessed as reduction in cell viability after 48 hrs by MTT assay
# Format: functional, cell-based
# details: HepG2, 48 h
Please respond with reported pIC50 for every item in the list.
Answers are plain numbers, as −log10 of the molar value.

Reference set, count: 3
smiles-text | pIC50
COC(=O)[C@]1(C)CCC[C@]2(C)c3cc(Br)c4nc(NCc5cc(Cl)ccc5O)[nH]c4c3CC[C@@H]12 | 4.93
COC(=O)[C@]1(C)CCC[C@]2(C)c3cc(Br)c4nc(/N=C/c5ccc(F)cc5O)[nH]c4c3CC[C@@H]12 | 5.91
COC(=O)[C@]1(C)CCC[C@]2(C)c3cc(Br)c4nc(NCc5ccc(F)cc5O)[nH]c4c3CC[C@@H]12 | 5.34

# batch size: 2; output pIC50 per entry
1. COC(=O)[C@]1(C)CCC[C@]2(C)c3cc(Br)c4nc(/N=C/c5ccc6ccccc6c5O)[nH]c4c3CC[C@@H]12
2. COC(=O)[C@]1(C)CCC[C@]2(C)c3cc(Br)c4nc(NCc5ccccc5O)[nH]c4c3CC[C@@H]12

## Result
1. 5.97
2. 4.65

# batch size: 2; output pIC50 per entry
1. COC(=O)[C@]1(C)CCC[C@]2(C)c3cc(Br)c4nc(NCc5cccc(F)c5O)[nH]c4c3CC[C@@H]12
2. COC(=O)[C@]1(C)CCC[C@]2(C)c3cc(Br)c4nc(/N=C/c5cc(C)ccc5O)[nH]c4c3CC[C@@H]12

## Result
[5.78, 6.92]

###

# Tested on: HepG2
# protocol-description: Cytotoxicity against human HepG2 cells assessed as reduction in cell viability after 48 hrs by MTT assay
# Assay type: functional, cell-based
# details: HepG2, 48 h
pIC50: −log10 of the molar value.
Outcome: MET for pIC50 of at least 6; NOT MET for anything lower.

smiles-text | answer-label
COC(=O)[C@]1(C)CCC[C@]2(C)c3cc(Br)c4nc(/N=C/c5cccc(F)c5O)[nH]c4c3CC[C@@H]12 | MET
COC(=O)[C@]1(C)CCC[C@]2(C)c3cc(Br)c4nc(NCc5cc(F)ccc5O)[nH]c4c3CC[C@@H]12 | NOT MET
COC(=O)[C@]1(C)CCC[C@]2(C)c3cc(Br)c4nc(NCc5cc([N+](=O)[O-])ccc5O)[nH]c4c3CC[C@@H]12 | NOT MET

# ---- query compound ----
## Task Hi team, for COC(=O)[C@]1(C)CCC[C@]2(C)c3cc(Br)c4nc(/N=C/c5cc(Cl)ccc5O)[nH]c4c3CC[C@@H]12 , is the recorded pIC50 at or above 6?
## Result NOT MET

Origin of values: ChEMBL document CHEMBL3994647
